molecular target: CCR2 (Homo sapiens); assay: MCP-1 Receptor Binding Assay in THP-1 Cells; conditions: THP-1 cells, 0.5 nM 125I labeled MCP-1, 2 hours at 30° C.; read-out: Inhibition of MCP-1 Binding IC50
Sequence (P41597 1-360 isoform P41597-2): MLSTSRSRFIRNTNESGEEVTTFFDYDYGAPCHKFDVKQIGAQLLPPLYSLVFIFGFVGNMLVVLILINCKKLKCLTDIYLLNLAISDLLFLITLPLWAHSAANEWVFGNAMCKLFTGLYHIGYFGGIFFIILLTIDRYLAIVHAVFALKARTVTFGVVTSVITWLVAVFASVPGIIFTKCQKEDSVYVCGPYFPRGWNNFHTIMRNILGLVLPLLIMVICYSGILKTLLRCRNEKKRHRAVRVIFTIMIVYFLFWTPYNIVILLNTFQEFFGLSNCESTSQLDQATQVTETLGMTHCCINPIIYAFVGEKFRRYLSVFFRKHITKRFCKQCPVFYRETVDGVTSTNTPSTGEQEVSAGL
Lab note: class by IC50, see low (below 200 nM), moderate (200 nM to below 1000 nM), high (1000 nM or more)

{"columns": ["Compound", "Assigned class"],
 "data": [
  ["O=C(/C=C/c1cc(F)c(F)c(F)c1)N1CCC(C(O)CN2CCC(c3c[nH]c4ncccc34)CC2)CC1 (centres unmarked)", "low"],
  ["O=C(/C=C/c1cc(F)c(F)c(F)c1)N1CCC(O)(C(O)CN2CCC(c3nc4ccccc4[nH]3)CC2)CC1 (centres unmarked)", "moderate"],
  ["O=C(/C=C/c1cc(F)cc(F)c1)N1CCC(O)(C(O)CN2CCC(O)(c3ccc(F)cc3)CC2)CC1 (centres unmarked)", "high"],
  ["O=C(/C=C/c1cccc(C(F)(F)F)c1)N1CCC(C(O)CN2CCC(c3c[nH]c4ncccc34)CC2)CC1 (centres unmarked)", "low"],
  ["COc1ccc2[nH]cc(C3CCN(CC(O)C4CCN(C(=O)/C=C/c5cc(F)cc(F)c5)CC4)CC3)c2c1 (centres unmarked)", "low"],
  ["O=C(OCc1ccccc1)N1CCC(O)(C(O)CN2CCC(c3ccc(Cl)cc3)CC2)CC1 (centres unmarked)", "high"],
  ["OCC(CC1CCN(C(=S)Nc2cccc(Br)c2)CC1)N1CCC(c2c[nH]c3ccccc23)CC1 (centres unmarked)", "high"],
  ["OC(CN1CCC(c2c[nH]c3ccc(N4CCOCC4)cc23)CC1)C1(O)CCN(C(=S)Nc2cc(Cl)cc(Cl)c2)CC1 (centres unmarked)", "high"],
  ["O=C(/C=C/c1ccc(F)c(F)c1)N1CCC(O)(C(O)CN2CCC(c3ccc(F)cc3)CC2)CC1 (centres unmarked)", "moderate"],
  ["OC(CN1CCC(c2ccc(C(F)(F)F)cc2)CC1)C1(O)CCN(C(=S)Nc2cc(Cl)cc(Cl)c2)CC1 (centres unmarked)", "high"],
  ["Cc1cccc(/C=C/C(=O)N2CCC(CC(CO)N3CCC(c4c[nH]c5ccccc45)CC3)CC2)c1 (centres unmarked)", "high"],
  ["COc1ccc(C2CCN(CC(O)C3(O)CCN(C(=O)/C=C/c4cc(F)c(F)c(F)c4)CC3)CC2)cc1 (centres unmarked)", "low"],
  ["O=C(/C=C/c1ccc(F)c(Br)c1)N1CCC(O)(C(O)CN2CCC(c3c[nH]c4ccc(F)cc34)CC2)CC1 (centres unmarked)", "moderate"],
  ["O=C(Nc1ccc(F)c(F)c1)N1CCC(C(O)CN2CCC(c3cc[nH]n3)CC2)CC1 (centres unmarked)", "high"],
  ["COc1ccc(C2CCN(CC(N)C3CCN(C(=O)/C=C/c4cc(F)c(F)c(F)c4)CC3)CC2)cc1 (centres unmarked)", "low"],
  ["COc1ccc(C2CCN(CC(O)C3(O)CCN(C(=O)/C=C/c4cccc(C)c4)CC3)CC2)cc1 (centres unmarked)", "high"],
  ["O=C(/C=C/c1cccc(C(F)(F)F)c1)N1CCC(O)(C(O)CN2CCC(c3c[nH]c4ccccc34)CC2)CC1 (centres unmarked)", "moderate"],
  ["COc1ccc(C2CCN(CC(O)C3CCN(C(=S)Nc4cccc(C(F)(F)F)c4)CC3)CC2)cc1 (centres unmarked)", "moderate"],
  ["COc1ccc(C2CCN(CC(O)C3CCN(C(=O)/C=C/c4ccc(Cl)c(Cl)c4)CC3)CC2)cc1 (centres unmarked)", "low"],
  ["COc1ccc(C2CCN(CC(NC(C)=O)C3CCN(C(=O)C=Cc4cc(F)c(F)c(F)c4)CC3)CC2)cc1 (centres unmarked)", "moderate"],
  ["COc1ccc(C2CCN(CC(O)C3(O)CCN(C(=O)/C=C/c4cc(F)cc(F)c4)CC3)CC2)cc1 (centres unmarked)", "moderate"],
  ["COc1ccc(C2CCN(CC(O)C3(O)CCN(C(=O)Nc4ccc(F)c(F)c4)CC3)CC2)cc1 (centres unmarked)", "high"],
  ["COc1ccc(C2CCN(CC(O)C3CCN(C(=S)Nc4cccc(Cl)c4)CC3)CC2)cc1 (centres unmarked)", "moderate"],
  ["Cc1cccc(/C=C/C(=O)N2CCC(C(O)CN3CCC(c4c[nH]c5ncccc45)CC3)CC2)c1 (centres unmarked)", "low"],
  ["COc1ccc(C2CCN(CC(O)C3CCN(C(=S)Nc4cc(F)cc(F)c4)CC3)CC2)cc1 (centres unmarked)", "moderate"],
  ["O=C(/C=C/c1cc(F)cc(Cl)c1)N1CCC(O)(C(O)CN2CCC(c3c[nH]c4ccccc34)CC2)CC1 (centres unmarked)", "low"],
  ["COc1ccc(C2CCN(CC(O)C3(O)CCN(C(=S)Nc4ccc(Cl)c(Cl)c4)CC3)CC2)cc1 (centres unmarked)", "high"],
  ["CS(=O)(=O)Nc1ccc2[nH]cc(C3CCN(CC(N)C4CCN(C(=O)C=Cc5cc(F)c(F)c(F)c5)CC4)CC3)c2c1 (centres unmarked)", "moderate"]
]}
